# assay-system: Receptor-type tyrosine-protein kinase FLT3 (Homo sapiens, UniProt P36888, ITD)
# Sequence (P36888 whole entry, looked up, change not shown): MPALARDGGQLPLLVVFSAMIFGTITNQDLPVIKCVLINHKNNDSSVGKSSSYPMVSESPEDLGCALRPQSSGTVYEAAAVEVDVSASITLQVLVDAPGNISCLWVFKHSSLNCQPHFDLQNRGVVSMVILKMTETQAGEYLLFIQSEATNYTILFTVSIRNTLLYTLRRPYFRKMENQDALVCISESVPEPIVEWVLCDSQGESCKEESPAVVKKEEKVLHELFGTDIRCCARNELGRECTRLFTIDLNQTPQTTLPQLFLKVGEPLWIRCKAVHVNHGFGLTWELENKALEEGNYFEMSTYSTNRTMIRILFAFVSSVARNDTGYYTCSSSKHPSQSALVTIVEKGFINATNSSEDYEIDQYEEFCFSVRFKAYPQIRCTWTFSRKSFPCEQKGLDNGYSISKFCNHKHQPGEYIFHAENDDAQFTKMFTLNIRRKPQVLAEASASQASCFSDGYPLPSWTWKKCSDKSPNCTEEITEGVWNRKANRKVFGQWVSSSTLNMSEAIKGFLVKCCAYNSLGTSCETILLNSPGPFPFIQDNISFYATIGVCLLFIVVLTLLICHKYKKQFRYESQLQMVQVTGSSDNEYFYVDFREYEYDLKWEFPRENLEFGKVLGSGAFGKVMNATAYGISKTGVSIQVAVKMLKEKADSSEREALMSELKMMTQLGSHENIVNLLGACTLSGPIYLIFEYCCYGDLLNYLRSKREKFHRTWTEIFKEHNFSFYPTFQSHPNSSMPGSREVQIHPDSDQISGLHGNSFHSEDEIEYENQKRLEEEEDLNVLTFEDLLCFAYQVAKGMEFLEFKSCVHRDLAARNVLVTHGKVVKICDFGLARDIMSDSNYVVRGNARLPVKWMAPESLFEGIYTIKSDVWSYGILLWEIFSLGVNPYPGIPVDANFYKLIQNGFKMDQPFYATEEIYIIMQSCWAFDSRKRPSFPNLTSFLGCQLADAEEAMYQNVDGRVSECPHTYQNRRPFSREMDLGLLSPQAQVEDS
# test-protocol: Inhibition of FLT3-ITD autophosphorylation in human MV4-11 cells by Western blot analysis
attribute-measured: IC50 (µM)

INSERT INTO results (molecule, numeric_readout) VALUES
  ('Cc1cc(C=C2C(=O)Nc3ccc(F)cc32)c2ccccc(OCCN3CCC[C@H]3CO)c1-2 (mixture of isomers)', 0.067);

* * *

# assay-system: Mast/stem cell growth factor receptor Kit (Homo sapiens)
# Sequence (P10721 whole entry): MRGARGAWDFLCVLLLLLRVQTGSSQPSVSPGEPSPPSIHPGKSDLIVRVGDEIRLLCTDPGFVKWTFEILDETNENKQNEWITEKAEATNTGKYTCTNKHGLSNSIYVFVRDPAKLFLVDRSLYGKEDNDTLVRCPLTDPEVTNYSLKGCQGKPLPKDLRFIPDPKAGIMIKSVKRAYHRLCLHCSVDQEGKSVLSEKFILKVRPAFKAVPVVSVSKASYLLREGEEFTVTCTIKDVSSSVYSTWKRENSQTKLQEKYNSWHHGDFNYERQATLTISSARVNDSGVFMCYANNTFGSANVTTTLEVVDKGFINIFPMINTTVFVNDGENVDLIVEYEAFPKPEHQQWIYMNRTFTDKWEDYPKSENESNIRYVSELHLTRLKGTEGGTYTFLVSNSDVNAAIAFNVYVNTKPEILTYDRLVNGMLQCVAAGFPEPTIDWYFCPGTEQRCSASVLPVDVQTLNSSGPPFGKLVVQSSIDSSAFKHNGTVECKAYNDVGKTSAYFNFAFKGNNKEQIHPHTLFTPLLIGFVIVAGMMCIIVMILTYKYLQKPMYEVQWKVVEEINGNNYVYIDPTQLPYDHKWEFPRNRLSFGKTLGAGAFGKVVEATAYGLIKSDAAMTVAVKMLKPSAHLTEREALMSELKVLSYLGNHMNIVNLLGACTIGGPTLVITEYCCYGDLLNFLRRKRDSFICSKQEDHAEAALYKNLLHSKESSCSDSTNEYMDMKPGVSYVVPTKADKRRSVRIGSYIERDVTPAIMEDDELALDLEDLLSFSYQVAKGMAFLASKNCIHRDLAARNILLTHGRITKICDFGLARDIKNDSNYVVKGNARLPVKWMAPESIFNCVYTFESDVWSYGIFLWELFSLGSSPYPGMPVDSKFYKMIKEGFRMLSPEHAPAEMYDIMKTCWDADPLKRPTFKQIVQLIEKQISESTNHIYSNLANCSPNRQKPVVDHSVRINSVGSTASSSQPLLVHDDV
# test-protocol: Inhibition of c-Kit autophosphorylation in human Kasumi-1 cells by Western blot analysis
attribute-measured: IC50 (nM)

INSERT INTO assay_data (molecule, assay_system, attribute_measured, unit, numeric_readout) VALUES
  ('Cc1cc(C=C2C(=O)Nc3ccc(F)cc32)c2ccccc(OCCN3CCC[C@H]3CO)c1-2 (mixture of isomers)', 'Mast/stem cell growth factor receptor Kit (Homo sapiens)', 'IC50', 'nM', 44);
